test system: CAKI-1 renal; experiment: NCI tumour cell line growth inhibition, 48 h
Where a SMILES comes first, the peptide text is derived from it. The star is where a group is joined. Fmoc = O=C(OCC1c2ccccc2-c2ccccc21)*; Boc = CC(C)(C)OC(=O)*
value kind: TGI

# compound, experimental result
measured = [
    ("C=C1CCC2C(C)(C)CCC[C@]2(C)[C@H]1CO (some centres not stated)", "> 100 µM"),
    ("Nc1[nH]c(=S)nc2snnc12", "> 100 µM"),
    ("COc1ccc(/C=C2\\N=C(c3ccccc3)N(N=C3NC(=O)CC(=O)N3)C2=O)cc1", "> 100 µM"),
    ("O=C(CCC(=O)C(C(=O)c1ccccc1)c1ccccc1)Nc1cccc(C(F)(F)F)c1 (configuration not stated)", "> 100 µM"),
    ("O=CC[C@H]1CCc2ccccc2C12CCC(=O)CC2", "> 100 µM"),
    ("COC(=O)c1ccc(C)cc1/C=C1\\Cc2ccc(C)cc2C1=O", "94.3 µM"),
    ("Cn1c(-c2ccccc2)cc2c3ccsc3c3ccsc3c21", "> 100 µM"),
    ("COC1OC(COCc2ccc(Cl)cc2)C(OCc2ccc(Cl)cc2)C1N=[N+]=[N-] (configuration not stated)", "> 100 µM"),
    ("COC(=O)C1=C(C)NC(C)=C(C(=O)OC)C1/C=C(Cl)/C=C/c1ccccc1", "49.3 µM"),
    ("Nc1nc(-c2ccc(F)cc2)c(-c2ccc3ncccc3n2)s1", "> 25 µM"),
    ("CN(CC(=O)N(Cc1ccc(C2CCCCC2)cc1)c1ccc(C(=O)O)c(O)c1)S(=O)(=O)c1c(F)c(F)c(F)c(F)c1F", "10.4 µM"),
    ("Nc1nc(N)c2ncn(Cc3ccccc3CCl)c2n1", "> 100 µM"),
    ("CC(C)[Si](OC1=CCC[C@H]2NC(=O)[C@@H](Cc3ccccc3)[C@@]12C)(C(C)C)C(C)C", "14.6 µM"),
    ("Fc1ccccc1C1CC(c2ccc3ccccc3c2)=Nc2ccccc2S1 (configuration not stated)", "> 100 µM"),
    ("N#C/C(=C\\NC(=S)c1ccncc1)c1nc2ccccc2s1", "> 100 µM"),
    ("CC(C)(C)OC(=O)NCCCCC(NC(=O)OCC1c2ccccc2-c2ccccc21)C(=O)N1CCCC1C(=O)NCC(N)=O (stereo not drawn) (Fmoc-Lys(Boc)-Pro-Gly-NH2; configuration not given here)", "30.1 µM"),
    ("O=C(/C=C/c1cc([N+](=O)[O-])ccc1Cl)c1ccccc1", "31.3 µM"),
    ("CCOC(=O)C(Cl)(NC(=O)c1c(F)c(F)c(F)c(F)c1F)C(F)(F)F (configuration not stated)", "36.4 µM"),
    ("N#CSCC1CC(O)(c2ccccc2)CC(c2ccc(F)cc2)O1 (configuration not stated)", "8.5 µM"),
    ("CCSc1cc(=O)n(C)c(=O)n1C", "> 100 µM"),
    ("Cc1noc2nnn(-c3ccc(Cl)cc3)c(=O)c12", "13 µM"),
    ("CCCCCCCCCCCCOP(=O)(O)OCC(N)C(=O)O (configuration not stated)", "95.8 µM"),
    ("COc1ccc(-c2nc3ccccn3c2/C=C/C(=O)c2cc(OC)c(OC)c(OC)c2)cc1", "> 100 µM"),
    ("O=[N+]([O-])c1cccc(C2ON2C2CCCCC2)c1 (configuration not stated)", "58.7 µM"),
    ("CC(C)(C)c1cc2c3c(c1)C(C(F)(F)F)(C(F)(F)F)O[Te]3(C)OC2(C(F)(F)F)C(F)(F)F", "> 100 µM"),
    ("NC1CC2NC3CCCCC3NC2CC1N (configuration not stated)", "> 100 µM"),
    ("Cc1[nH]c(=O)nc(N(CCO)/N=C/c2ccccc2Cl)c1C(=O)Nc1cc(Cl)cc(Cl)c1", "> 100 µM"),
    ("COc1ccc2c(c1)C(=O)c1c-2c(Nc2ccc(Cl)cc2)nc2ccccc12", "> 100 µM"),
    ("CN1CCN(c2ccc3nc(-c4ccc5nc(-c6ccc(OCCC(C)(C)C)cc6)[nH]c5c4)[nH]c3c2)CC1", "15.7 µM"),
    ("COc1cc(/C=C/C(=O)c2ccc(NC(=O)CN3CCN(c4cc5c(cc4F)c(=O)c(C(=O)O)cn5C4CC4)CC3)cc2)cc(OC)c1OC", "> 32.5 µM"),
    ("CC(C)(C)c1cc(C2=NN(c3ccccc3)C(c3ccccc3)C2)cc(C(C)(C)C)c1O (configuration not stated)", "> 100 µM"),
    ("CCc1ccc2nc(-c3ccc(O)cc3)sc2c1", "26.4 µM"),
    ("CN(C)CCNC(=O)c1cccc2c1nc(-c1ccccc1)c1ccccc12", "18.4 µM"),
    ("CCOC(=O)Cc1nc2sc(S(N)(=O)=O)nn2c1Br", "37.2 µM"),
    ("O=C(/C=C/c1ccc(O)c(O)c1)c1cc(O)cc(O)c1", "> 100 µM"),
    ("NC(=O)c1cc(-c2ccc(F)cc2)cc(-c2ccncc2)c1N", "> 25 µM"),
    ("O=C(O)c1cccc(N=Nc2c(S(=O)(=O)O)ccc3c2C(=O)c2ccccc2C3=O)c1O", "> 100 µM"),
    ("COc1ccc(Cn2cc3c(c2-c2ccc(OC)cc2)CCc2cnoc2-3)cc1", "> 100 µM"),
    ("O=C(Cc1nccc2c1[nH]c1ccccc12)OC1C#CCSCC#C/C=C\\1 (configuration not stated)", "> 100 µM"),
    ("c1csc(-c2cc(-c3cccs3)c(-c3cccs3)s2)c1", "> 100 µM"),
    ("O=c1[nH]c(Nc2cc(Cl)cc(Cl)c2)nc2nc[nH]c12", "> 75 µM"),
    ("CC1C[C@@H]2C(=O)NC(=O)[C@@H]2c2c1c1ccccc1n2C (some centres not stated)", "> 100 µM"),
]

Data credit: PubChem BioAssay (NCI)
